// provenance: a melting point compilation (Tetko et al.; mined from patent text by program, amines drawn as free bases though some values may be those of a salt)

METRIC_NAME: melting point

melting point lookup needed for CCCc1ccc(CCCC(P(=O)(O)O)P(=O)(O)O)cc1 , thanks.
200 to 202 °C

melting point lookup needed for COCCc1ccc(OCC(O)C(C)(C)N)cc1 (centres undefined) , thanks.
120 to 122 °C

melting point lookup needed for O=C(OC1CCCCC1)c1ncn2c1[C@@H]1CCCN1C(=O)c1c(I)cccc1-2 , thanks.
181 to 182 °C

melting point lookup needed for O=C(O)c1cnccc1Cc1cc(Cl)ccc1F , thanks.
174 to 176 °C

melting point lookup needed for CC1(C)CNC(=O)C(=O)N1c1cc(F)cc2ccoc12 , thanks.
162 to 165 °C

melting point lookup needed for CCn1ncc2c1ncc1c(=O)n3nc(C)cc3n(C)c12 , thanks.
306 to 307 °C

melting point lookup needed for CC(=O)Nc1nc2c(nc(F)n2COCCOC(C)=O)c(=O)[nH]1 , thanks.
196 to 198 °C

melting point lookup needed for CCc1cc2c(cc1OC)C(CN1CCC(c3noc4cc(F)ccc34)CC1)=C2 , thanks.
92 to 97 °C

melting point lookup needed for Cc1ccc2c(c1)N(CC(=O)c1ccccc1C)C(=O)C(NC(=O)Nc1cccc(C(=O)O)c1)CN2C(=O)c1cccs1 (centres undefined) , thanks.
219 to 222 °C

melting point lookup needed for O=[N+]([O-])c1c(CO)cccc1CO , thanks.
100 to 101 °C

melting point lookup needed for O=C(NC12CC3CC(CC(C3)C1)C2)OCc1cccs1 , thanks.
66 to 68 °C

melting point lookup needed for CCCCn1c(=O)c(NC(=O)Nc2c(C(C)C)cc(N(C)Cc3cccnc3)cc2C(C)C)c(-c2cccc(OC)c2)c2cccnc21 , thanks.
155 to 157 °C

melting point lookup needed for CC(C)(C)OC(=O)NCC(C(=O)OCc1ccccc1)c1ccccc1 (centres undefined) , thanks.
58 to 59 °C

melting point lookup needed for NCC1COc2cc(Cl)cc(-c3ccc(C(F)(F)F)cc3C(F)(F)F)c2N1 (centres undefined) , thanks.
98 °C

melting point lookup needed for NCCCNC(=O)c1ccc(-c2nn(-c3ccc(C(=O)O)cc3)c3ccccc23)cc1 , thanks.
285 to 288 °C

melting point lookup needed for O=C(c1ccccc1)c1noc(CS(=O)c2ccccc2)n1 (centres undefined) , thanks.
79 to 81 °C

melting point lookup needed for C=C1CC(C)(COc2ccc3ccc(=O)oc3c2)OC1=O (centres undefined) , thanks.
123 to 124 °C

melting point lookup needed for COC(=O)CC(O)CC(O)CCc1c(-c2ccc(F)cc2)c(-c2ccccc2)c(C(=O)Nc2ccc(C(=O)OC)cn2)n1C(C)C (centres undefined) , thanks.
71 to 75 °C

melting point lookup needed for CC(C)CC(NC(=O)OCc1ccccc1)C(=O)NC(C#N)COCc1ccccc1 (centres undefined) , thanks.
126 to 127 °C

melting point lookup needed for Nc1nc2c(ncn2OCCCOCP(=O)(O)O)c(=O)[nH]1 , thanks.
247 to 250 °C

melting point lookup needed for O=C(O)c1ccc(S(=O)(=O)n2c(=O)[nH]c3cc(Cl)ccc3c2=O)cc1 , thanks.
> 200 °C

melting point lookup needed for O=C1c2ccc(C(F)(F)F)cc2C(=O)c2cc3ccccc3cc21 , thanks.
253 to 254 °C

melting point lookup needed for COc1cc(C(=O)C(C)C)cc([N+](=O)[O-])c1O , thanks.
85 to 87 °C

melting point lookup needed for N#Cc1ncn2c1NCC=C2c1cccc(C(F)(F)F)c1 , thanks.
241 to 243 °C
